test system: E21 (patient-derived glioblastoma stem cells of mesenchymal subtype); experiment: phenotypic distance (Euclidean, principal components) from DMSO controls (arbitrary units); higher = stronger morphological change; details: 4.1 nM; exposure time: 72 h;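 further: cell Painting imaging in 384-well plates, CellProfiler features reduced to at least 20 principal components, Euclidean distance versus same-plate DMSO vehicle wells (0.1% v/v), median over six images per well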
Counter-ions that a name gives are not always drawn.
Field: phenotypic distance. Provide a value for each of the compounds that follow.
Form: value (number only, do not type unit).

// assay E21, entry CCC(C)n1ncn(-c2ccc(N3CCN(c4ccc(OCC5COC(Cn6cncn6)(c6ccc(Cl)cc6Cl)O5)cc4)CC3)cc2)c1=O (stereo not given) , phenotypic distance value = 0.987

// assay E21, entry c1ccc2c(c1)[I+]c1ccccc1-2 [Diphenyleneiodonium chloride] , phenotypic distance value = 2.03

// assay E21, entry CN1C(=O)CC(c2ccccc2)C1=O (stereo not given) [Phensuximide] , phenotypic distance value = 0.59

// assay E21, entry `O=C(Oc1cccc2cccnc12)c1ccccc1` , phenotypic distance value = 1.17

// assay E21, entry CCCCCCC[N+](CC)(CC)CCCCc1ccc(Cl)cc1 [Clofilium tosylate] , phenotypic distance value = 0.676

====

Field: surviving fraction. Provide a value for each of the compounds that follow.
tested on: E28 (patient-derived glioblastoma stem cells of classical subtype); experiment: surviving fraction (nuclei count normalised to DMSO); higher = more cells surviving (less toxic); conditions: 12.3 nM; exposure time: 72 h;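 further: nuclei counted by high-content imaging of Hoechst-stained cells in laminin-coated 384-well plates, relative to 0.1% DMSO vehicle wells, with staurosporine as cell-death control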
Structures can show the parent of a compound that is named as a salt.
Form: value (number only, do not type unit).

The recorded surviving fraction for CC(C)C(=O)OCC(=O)[C@@]12O[C@H](C3CCCCC3)O[C@@H]1C[C@H]1[C@@H]3CCC4=CC(=O)C=C[C@]4(C)[C@H]3[C@@H](O)C[C@@]12C [Ciclesonide] is 1

The recorded surviving fraction for COC(=O)C1=C(C)NC(C)=C(C(=O)OCC(C)C)C1c1ccccc1[N+](=O)[O-] (stereo unspecified) is 0.957

The recorded surviving fraction for CC1(C(=O)O)C2CCC(O2)C1(C)C(=O)O (stereo unspecified) is 1.05

The recorded surviving fraction for COc1cc([C@@H]2c3cc4c(cc3[C@@H](O[C@@H]3O[C@@H]5CO[C@@H](c6cccs6)O[C@H]5[C@H](O)[C@H]3O)[C@H]3COC(=O)[C@H]23)OCO4)cc(OC)c1O [Teniposide] is 0.379

The recorded surviving fraction for `Cc1cc(Nc2cc(CN3CCOCC3)c3nc(C)c(Cc4ccc(Cl)cc4F)n3n2)n[nH]1` is 0.979

The recorded surviving fraction for `CNc1ccc2oc(C[C@H]3O[C@@]4(CC[C@H]3C)O[C@H]([C@H](C)C(=O)c3ccc[nH]3)[C@H](C)C[C@H]4C)nc2c1C(=O)O` is 1.19

The recorded surviving fraction for CC(C)(Oc1ccc(C2CC2(Cl)Cl)cc1)C(=O)O (stereo unspecified) [Ciprofibrate] is 0.804

The recorded surviving fraction for CN(C)C(=O)Oc1ccc[n+](C)c1 [Pyridostigmine iodide] is 0.975

The recorded surviving fraction for CC1(C)S[C@@H]2[C@H](NC(=O)Cc3ccccc3)C(=O)N2[C@H]1C(=O)O [Benzylpenicillin sodium] is 1.09

The recorded surviving fraction for N=c1ccn2c(n1)O[C@H]1[C@H](O)[C@@H](CO)O[C@H]12 [Ancitabine hydrochloride] is 1.18

The recorded surviving fraction for CN1[C@@H]2CC[C@H]1CC(OC(=O)c1c[nH]c3ccccc13)C2 (stereo partly specified) [3-Tropanyl-indole-3-carboxylate hydrochloride] is 0.858
